# experimental-system: OX2R (Homo sapiens, UniProt O43614)
# Construct: expressed in transfected cells; host or cells: CHO (Chinese hamster ovary) cells constitutively expressing the OX2R gene and NFAT-luciferase (CHOOX2R)
# Sequence (O43614 whole entry): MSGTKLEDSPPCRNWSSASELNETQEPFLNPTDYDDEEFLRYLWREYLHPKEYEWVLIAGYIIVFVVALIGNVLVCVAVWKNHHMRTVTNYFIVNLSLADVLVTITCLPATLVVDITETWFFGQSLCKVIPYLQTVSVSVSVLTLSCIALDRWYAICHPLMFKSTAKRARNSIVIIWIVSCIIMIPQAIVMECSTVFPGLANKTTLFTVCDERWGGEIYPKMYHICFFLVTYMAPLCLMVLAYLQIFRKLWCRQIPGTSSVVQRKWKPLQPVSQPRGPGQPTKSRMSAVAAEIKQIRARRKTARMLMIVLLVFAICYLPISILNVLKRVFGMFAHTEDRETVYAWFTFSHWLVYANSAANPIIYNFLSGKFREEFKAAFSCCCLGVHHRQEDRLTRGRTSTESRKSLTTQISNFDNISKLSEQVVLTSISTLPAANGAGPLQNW
# experiment-notes: Evaluation of agonist activity against OX2R (CHOOX2R cells, Fura2AM fluorescence, FDSS3000)
# Type: cell-based
# cond: test compound 1.0 μM; CHOOX2R cells; relative to orexin-A as full agonist (100%)
# Description: Evaluation of Agonist Activity Against OX2R NFAT-luciferase gene and OX2R gene were each constitutively expressed in CHO cell, which is a cell line derived from Chinese hamster ovary to establish a cell line (CHOOX2R). […] After washing, HEPES buffer (75 μL) was added, a test compound solution (25 μL) was added, and changes in the fluorescence intensity were measured by FDSS3000 (Hamamatsu Photonics K.K.). […]
Each record is given TRUE if its reported Response (1.0 μM (%)) is strictly below 60%. Records at or above 60% are given FALSE.

{"structure-notation": "COc1ccc(-c2cccc(C(=O)N(C)C)c2)cc1S(=O)(=O)Nc1cccc(NCCNC(=O)c2ccoc2C)c1", "group": "FALSE"}
{"structure-notation": "COc1ccccc1C(=O)NCCNc1cccc(NS(=O)(=O)c2cc(-c3cccc(CO)c3)ccc2OC)c1", "group": "TRUE"}
{"structure-notation": "COc1ccc(-c2cccc(C(=O)N(C)C)c2)cc1S(=O)(=O)Nc1cccc(NCCNC(=O)c2ccc(Cl)s2)c1", "group": "TRUE"}
{"structure-notation": "COc1ccc(-c2cccc(C(=O)N(C)C)c2)cc1S(=O)(=O)Nc1cccc(NCCNC(=O)c2cccnc2Cl)c1", "group": "FALSE"}

Read the next record carefully.
In: Please let me know if `COc1cccc(-c2ccc(OC)c(S(=O)(=O)Nc3cccc(NCCNC(=O)c4ccccc4OC)c3)c2)n1` shows Response (1.0 μM (%)) below 60%.
Out: TRUE
